Give measured Ki for each item. Keep answers brief.
target_under_test: human recombinant GST-PAK1-KD protein (Homo sapiens)
Construct: residues #249-545 of human PAK1, UniProtKP/Swiss Q13153; His6 (N); made in house; host or cells: Sf9 insect cells, pAcGP67 baculovirus expression vector
Sequence (Q13153 249-545): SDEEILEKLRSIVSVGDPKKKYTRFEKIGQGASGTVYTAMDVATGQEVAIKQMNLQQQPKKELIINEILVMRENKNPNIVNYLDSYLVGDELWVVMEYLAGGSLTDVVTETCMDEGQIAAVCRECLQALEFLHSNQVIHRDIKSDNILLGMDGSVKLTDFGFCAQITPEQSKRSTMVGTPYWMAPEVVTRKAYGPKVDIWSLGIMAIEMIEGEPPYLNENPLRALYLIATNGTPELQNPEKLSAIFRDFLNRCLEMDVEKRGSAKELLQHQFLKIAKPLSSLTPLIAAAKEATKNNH
experimental_protocol: GST-PAK1-KD (kinase domain) biochemical assay, microfluidic mobility shift
condition_summary: Table I, PAK1 Ki class; read-out: Ki
Counter-ions that a name gives are not always drawn.

Here are 3 molecules. What values of Ki were reported for them?
1. FC1(F)CC1c1cc(Nc2ccnc(NCc3cccc4[nH]ccc34)n2)n[nH]1 (stereo not drawn)
2. Fc1cc(CNc2nccc(Nc3cc(C4CCC4)[nH]n3)n2)c2cc[nH]c2c1 [I-88, Formate]
3. CN(Cc1cccc2[nH]ccc12)c1nccc(Nc2cc(C3CC3)[nH]n2)n1

1: < 50 nM; 2: < 50 nM; 3: 50 to 250 nM
